- Assay Remarks: xn = mol fraction of the nth substance listed
- Study Conditions: 318 K; 101.13 kPa; Liquid; Concentric cylinders viscometry; x1 = 0.5
Listing: viscosity of selected molecules

{"columns": ["Molecule", "Uom", "viscosity"],
 "data": [
  ["C[N+](C)(C)Cc1ccccc1.[Cl-] [trimethylbenzylammonium chloride] + OCCCCCCO", "mPa·s", 23.5],
  ["C[N+](C)(C)Cc1ccccc1.[Cl-] [trimethylbenzylammonium chloride] + CCC(O)CO", "mPa·s", 22.1],
  ["C[N+](C)(C)Cc1ccccc1.[Cl-] [trimethylbenzylammonium chloride] + OCC(O)CO", "mPa·s", 29.7],
  ["C[N+](C)(C)Cc1ccccc1.[Cl-] [trimethylbenzylammonium chloride] + OCCO", "mPa·s", 20.7]
]}

====

- Assay Remarks: xn = mol fraction of the nth substance listed
- Study Conditions: 308 K; 101.13 kPa; Liquid; Vibrating tube method; x1 = 0.5
Numbers after ± are expanded uncertainties.

{"columns": ["Molecule", "mass density"],
 "data": [
  ["C[N+](C)(C)Cc1ccccc1.[Cl-] [trimethylbenzylammonium chloride] + CCC(O)CO", "1073 ± 20 kg/m3"],
  ["C[N+](C)(C)Cc1ccccc1.[Cl-] [trimethylbenzylammonium chloride] + OCCO", "1105.1 ± 20 kg/m3"],
  ["C[N+](C)(C)Cc1ccccc1.[Cl-] [trimethylbenzylammonium chloride] + OCCCCCCO", "1119.7 ± 20 kg/m3"],
  ["C[N+](C)(C)Cc1ccccc1.[Cl-] [trimethylbenzylammonium chloride] + OCC(O)CO", "1161.4 ± 20 kg/m3"]
]}

====

Items are presented alongside their recorded mass density.
- Assay Remarks: xn = mol fraction of the nth substance listed
- Study Conditions: 323 K; 101.13 kPa; Liquid; Vibrating tube method; x1 = 0.5
Metric Name: mass density (kg/m3)

{"columns": ["Molecule", "Metric Name", "Result Value"],
 "data": [
  ["C[N+](C)(C)Cc1ccccc1.[Cl-] [trimethylbenzylammonium chloride] + CCC(O)CO", "mass density", 1049],
  ["C[N+](C)(C)Cc1ccccc1.[Cl-] [trimethylbenzylammonium chloride] + OCC(O)CO", "mass density", 1152.4],
  ["C[N+](C)(C)Cc1ccccc1.[Cl-] [trimethylbenzylammonium chloride] + OCCCCCCO", "mass density", 1100],
  ["C[N+](C)(C)Cc1ccccc1.[Cl-] [trimethylbenzylammonium chloride] + OCCO", "mass density", 1085]
]}

====

- Assay Remarks: xn = mol fraction of the nth substance listed
- Study Conditions: 293 K; 101.13 kPa; Liquid; Vibrating tube method; x1 = 0.5
Metric Name: mass density (kg/m3)

{"columns": ["Molecule", "Metric Name", "Result Value"],
 "data": [
  ["C[N+](C)(C)Cc1ccccc1.[Cl-] [trimethylbenzylammonium chloride] + OCCCCCCO", "mass density", 1142.3],
  ["C[N+](C)(C)Cc1ccccc1.[Cl-] [trimethylbenzylammonium chloride] + OCC(O)CO", "mass density", 1170.3],
  ["C[N+](C)(C)Cc1ccccc1.[Cl-] [trimethylbenzylammonium chloride] + CCC(O)CO", "mass density", 1104],
  ["C[N+](C)(C)Cc1ccccc1.[Cl-] [trimethylbenzylammonium chloride] + OCCO", "mass density", 1123.7]
]}

====

- Assay Remarks: refractive index (Na D-line) (dimensionless); xn = mol fraction of the nth substance listed
- Study Conditions: 298 K; 101.13 kPa; Liquid; Standard Abbe refractometry; x1 = 0.5
Examples of compounds with documented refractive index follow.
Metric Name: refractive index

{"columns": ["Compound", "Result Value"],
 "data": [
  ["C[N+](C)(C)Cc1ccccc1.[Cl-] [trimethylbenzylammonium chloride] + OCCO", 1.4763],
  ["C[N+](C)(C)Cc1ccccc1.[Cl-] [trimethylbenzylammonium chloride] + OCC(O)CO", 1.5612],
  ["C[N+](C)(C)Cc1ccccc1.[Cl-] [trimethylbenzylammonium chloride] + CCC(O)CO", 1.4956],
  ["C[N+](C)(C)Cc1ccccc1.[Cl-] [trimethylbenzylammonium chloride] + OCCCCCCO", 1.5107]
]}

====

- Assay Remarks: xn = mol fraction of the nth substance listed
- Study Conditions: 308 K; 101.13 kPa; Liquid; Concentric cylinders viscometry; x1 = 0.5
Each entry below carries its reported viscosity.
Metric Name: viscosity (mPa·s)

{"columns": ["Molecule", "Result Value"],
 "data": [
  ["C[N+](C)(C)Cc1ccccc1.[Cl-] [trimethylbenzylammonium chloride] + OCCO", 54.6],
  ["C[N+](C)(C)Cc1ccccc1.[Cl-] [trimethylbenzylammonium chloride] + OCC(O)CO", 79.8],
  ["C[N+](C)(C)Cc1ccccc1.[Cl-] [trimethylbenzylammonium chloride] + CCC(O)CO", 64.2],
  ["C[N+](C)(C)Cc1ccccc1.[Cl-] [trimethylbenzylammonium chloride] + OCCCCCCO", 72.9]
]}

====

- Assay Remarks: refractive index (Na D-line) (dimensionless); xn = mol fraction of the nth substance listed
- Study Conditions: 308 K; 101.13 kPa; Liquid; Standard Abbe refractometry; x1 = 0.5
The reader will find reported refractive index values listed item by item below.
Metric Name: refractive index

{"columns": ["Compound", "Metric Name", "Result Value"],
 "data": [
  ["C[N+](C)(C)Cc1ccccc1.[Cl-] [trimethylbenzylammonium chloride] + OCC(O)CO", "refractive index", 1.556],
  ["C[N+](C)(C)Cc1ccccc1.[Cl-] [trimethylbenzylammonium chloride] + CCC(O)CO", "refractive index", 1.4892],
  ["C[N+](C)(C)Cc1ccccc1.[Cl-] [trimethylbenzylammonium chloride] + OCCCCCCO", "refractive index", 1.5052],
  ["C[N+](C)(C)Cc1ccccc1.[Cl-] [trimethylbenzylammonium chloride] + OCCO", "refractive index", 1.4695]
]}

====

- Assay Remarks: xn = mol fraction of the nth substance listed
- Study Conditions: 298 K; 101.13 kPa; Liquid; Alternating current cell with electrodes; x1 = 0.5
electrical conductivity: recorded values

{"columns": ["Compound", "electrical conductivity [S/m]"],
 "data": [
  ["C[N+](C)(C)Cc1ccccc1.[Cl-] [trimethylbenzylammonium chloride] + OCCCCCCO", 0.0842],
  ["C[N+](C)(C)Cc1ccccc1.[Cl-] [trimethylbenzylammonium chloride] + CCC(O)CO", 0.194],
  ["C[N+](C)(C)Cc1ccccc1.[Cl-] [trimethylbenzylammonium chloride] + OCC(O)CO", 0.0688],
  ["C[N+](C)(C)Cc1ccccc1.[Cl-] [trimethylbenzylammonium chloride] + OCCO", 0.539]
]}

====

- Assay Remarks: xn = mol fraction of the nth substance listed
- Study Conditions: 298 K; 101.13 kPa; Liquid; Concentric cylinders viscometry; x1 = 0.5
Numbers after ± are expanded uncertainties.

{"columns": ["Compound", "viscosity"],
 "data": [
  ["C[N+](C)(C)Cc1ccccc1.[Cl-] [trimethylbenzylammonium chloride] + OCC(O)CO", "383.9 ± 59 mPa·s"],
  ["C[N+](C)(C)Cc1ccccc1.[Cl-] [trimethylbenzylammonium chloride] + OCCO", "137.3 ± 11 mPa·s"],
  ["C[N+](C)(C)Cc1ccccc1.[Cl-] [trimethylbenzylammonium chloride] + OCCCCCCO", "298.3 ± 41 mPa·s"],
  ["C[N+](C)(C)Cc1ccccc1.[Cl-] [trimethylbenzylammonium chloride] + CCC(O)CO", "231.7 ± 27 mPa·s"]
]}

====

Overview of reported electrical conductivity across a group of molecules:
- Assay Remarks: xn = mol fraction of the nth substance listed
- Study Conditions: 308 K; 101.13 kPa; Liquid; Alternating current cell with electrodes; x1 = 0.5

{"columns": ["Molecule", "electrical conductivity"],
 "data": [
  ["C[N+](C)(C)Cc1ccccc1.[Cl-] [trimethylbenzylammonium chloride] + OCCCCCCO", "0.17 S/m"],
  ["C[N+](C)(C)Cc1ccccc1.[Cl-] [trimethylbenzylammonium chloride] + OCC(O)CO", "0.123 S/m"],
  ["C[N+](C)(C)Cc1ccccc1.[Cl-] [trimethylbenzylammonium chloride] + OCCO", "0.843 S/m"],
  ["C[N+](C)(C)Cc1ccccc1.[Cl-] [trimethylbenzylammonium chloride] + CCC(O)CO", "0.382 S/m"]
]}

====

# viscosity listing for each entry below
- Assay Remarks: xn = mol fraction of the nth substance listed
- Study Conditions: 313 K; 101.13 kPa; Liquid; Concentric cylinders viscometry; x1 = 0.5
Metric Name: viscosity (mPa·s)

{"columns": ["Compound", "Result Value"],
 "data": [
  ["C[N+](C)(C)Cc1ccccc1.[Cl-] [trimethylbenzylammonium chloride] + OCCCCCCO", 38.7],
  ["C[N+](C)(C)Cc1ccccc1.[Cl-] [trimethylbenzylammonium chloride] + OCC(O)CO", 48.5],
  ["C[N+](C)(C)Cc1ccccc1.[Cl-] [trimethylbenzylammonium chloride] + CCC(O)CO", 34.5],
  ["C[N+](C)(C)Cc1ccccc1.[Cl-] [trimethylbenzylammonium chloride] + OCCO", 28.9]
]}
